The entries below pair compounds with pIC50 values for UniProt Q9Y233, as found in several publications.
pIC50 is a log-scale quantity: -log10 of the concentration expressed in molar.

Solved cases below.
{"columns": ["Cpd Smiles", "Target", "Property Measured", "Numeric Result"],
 "data": [
  ["CC1(C)C(=O)N([C@H]2C[C@H](Nc3cccc(Cl)n3)C2)c2ncccc21", "UniProt Q9Y233", "pIC50", 7.29],
  ["Cc1cc(C)n2nc(CCc3nc(N4CCCC4)nn3CC(F)(F)F)nc2n1", "UniProt Q9Y233", "pIC50", 7.69],
  ["CC(C)(O)CNC(=O)c1c(NC(=O)c2nc(C3CC3)cnc2Nc2cncnc2)ccc(F)c1F", "UniProt Q9Y233", "pIC50", 8.34],
  ["C[C@@H]1C[C@H](C)CN(c2nnc3c(N)nccn23)C1", "UniProt Q9Y233", "pIC50", 5.17],
  ["O=C(Nc1cc(-c2ccccc2)no1)c1nc(C2CC2)ccc1Nc1cncnc1", "UniProt Q9Y233", "pIC50", 6.21],
  ["O=c1n(C2CC2)c2cccnc2n1[C@H]1C[C@H](Nc2nc3ccccc3s2)C1", "UniProt Q9Y233", "pIC50", 10.60]
]}

Now, please, on to the next compound.
Simply: Cn1cc(C(=O)Nc2ccn3cc(-c4ccccc4)nc3n2)c(C(=O)N2CCC2)n1 , UniProt Q9Y233, pIC50 = 7.94
